# METHOD DESCRIPTION: logP(acid) by reverse phase (C18) chromatography at pH 2.3
# Assay type: physicochemical
# ASSAY SETUP: reverse phase (C18) chromatography at pH 2.3
READOUT KIND: logP (acid)

Sample answers from the record:
COMPOUND: CSC[C@H](C)NC(=O)c1c(Cl)cccc1C(=O)Nc1ccc(Cn2cc(C(F)(F)C(F)(F)F)c(C(F)(F)C(F)(F)F)n2)nc1C
logP (acid): 4.27
//
COMPOUND: CSC[C@H](C)NC(=O)c1c(Cl)cccc1C(=O)Nc1cnc(Cn2nc(C(F)(F)F)cc2C(F)(F)F)cc1C
logP (acid): logP (acid) 3.52
//
COMPOUND: CSC[C@H](C)NC(=O)c1c(Cl)cccc1C(=O)Nc1ccc(Cn2c(C(F)(F)F)nc(Cl)c2Cl)nc1C
logP (acid): 3.50
//
COMPOUND: Cc1nc(Cn2nc(C(F)F)c(Cl)c2C(F)F)ccc1NC(=O)c1cccc(Cl)c1C(=O)NC(C)C[S+](C)[O-] (mixture of isomers)
logP (acid): 2.13

Attention now shifts to the item below.
### Prompt Look at this compound and give its reported logP (acid). Cc1nc(Cn2cc(C(F)(F)C(F)(F)F)c(C(F)(F)C(F)(F)F)n2)ccc1NC(=O)c1cccc(Br)c1C(=O)N[C@@H](C)CS(C)(=O)=O
### Response logP (acid) 3.52

###

# METHOD DESCRIPTION: logP(acid) by reverse phase (C18) chromatography at pH 2.3
# Format: physicochemical
# ASSAY SETUP: reverse phase (C18) chromatography column, pH 2.3; reverse phase (C18) chromatography, pH2.3, 0.1% phosphoric acid / acetonitrile gradient 10-95%; read-out: logP (acid)
READOUT KIND: chromatographic logP

Previously resolved entries follow.
COMPOUND: Cc1nc(Cn2cc(C(F)(F)C(F)(F)F)c(C(F)(F)C(F)(F)F)n2)ccc1[N+](=O)[O-] [SYNTHESIS EXAMPLE 82-1]
chromatographic logP: 4.5
--
COMPOUND: Cc1nc(Cn2nnc(C(F)(F)F)n2)ccc1N [SYNTHESIS EXAMPLE 85-2]
chromatographic logP: 1.18

1: Cc1cc(Cn2nc(C(F)(F)F)cc2C(F)(F)F)ncc1[N+](=O)[O-] [SYNTHESIS EXAMPLE 68-2]
2: Cc1cc(COS(C)(=O)=O)ncc1[N+](=O)[O-] [SYNTHESIS EXAMPLE 68-1]
3: Cc1nc(Cn2cnc(C(F)(F)C(F)F)n2)ccc1N [SYNTHESIS EXAMPLE 83-2]
### Prompt Hello, I need these entries ordered by chromatographic logP, highest reading first. Thanks! Please express your ranking as an ordered list of the labels.
### Response 1, 2, 3
(1: 3.64, 2: 1.49, 3: 0.55)

###

# METHOD DESCRIPTION: logP(acid) by reverse phase (C18) chromatography at pH 2.3
# Assay type: physicochemical
# ASSAY SETUP: reverse phase (C18) chromatography at pH 2.3
READOUT KIND: logP (acid)

COMPOUND: Cc1nc(Cn2nc(C(F)F)c(Cl)c2C(F)F)ccc1NC(=O)c1cccc(Cl)c1C(=O)N[C@@H](C)CS(C)(=O)=O [13-76]
EXPERIMENTAL VALUE: 2.48

// below: logP (acid) requested for another compound
### Prompt logP (acid) for Cc1nc(Cn2nc(C(F)(F)C(F)(F)F)cc2C(F)(F)F)ccc1NC(=O)c1cccc(Cl)c1C(=O)N[C@@H](C)C[S+](C)[O-] (stereo partly shown) [13-70] ?
### Response 2.86

###

# METHOD DESCRIPTION: logP(acid) by reverse phase (C18) chromatography at pH 2.3
# Type: physicochemical
# ASSAY SETUP: reverse phase (C18) chromatography at pH 2.3
Recorded measurements of logP (acid), one per entry

COMPOUND: CSC[C@H](C)NC(=O)c1c(Cl)cccc1C(=O)Nc1ccc(Cn2nc(C(F)F)c(Br)c2C(F)F)nc1C [13-28]
EXPERIMENTAL VALUE: 3.20

Okay, now this compound:
### Prompt May I ask what logP (acid) has been recorded for CSC[C@H](C)NC(=O)c1c(Cl)cccc1C(=O)Nc1ccc(Cn2nc(C(F)F)c(Cl)c2C(F)F)nc1C [13-27] ?
### Response 3.21

###

# METHOD DESCRIPTION: logP(acid) by reverse phase (C18) chromatography at pH 2.3
# Format: physicochemical
# ASSAY SETUP: reverse phase (C18) chromatography, pH 2.3
READOUT KIND: logP (acid)

MOLECULE: Cc1cc(Cn2nc(C(F)(F)C(F)(F)F)nc2C(F)(F)F)ccc1NC(=O)c1cccc(I)c1C(=O)NC(C)CC1(C)OCCO1 (centres unmarked) [14-361]
EXPERIMENTAL VALUE: logP (acid) 3.95

MOLECULE: Cc1nc(N(C)c2c(C(F)(F)F)c(C(F)(F)C(F)(F)F)nn2C)ccc1NC(=O)c1cccc(Cl)c1C(=O)N[C@@H](C)C[S+](C)[O-] (some centres unmarked) [13-354]
EXPERIMENTAL VALUE: logP (acid) 2.91

MOLECULE: CSC[C@H](C)NC(=O)c1c(Cl)cccc1C(=O)Nc1ccc(Cn2nnc(C(F)(F)F)n2)nc1C [14-306]
EXPERIMENTAL VALUE: logP (acid) 2.91

MOLECULE: Cc1cc(Cn2nc(C(F)(F)C(F)(F)F)nc2C(F)(F)F)ccc1NC(=O)c1cccc(I)c1C(=O)NC(C)CC1(C)OCCCO1 (centres unmarked) [14-358]
EXPERIMENTAL VALUE: logP (acid) 3.95

###

# METHOD DESCRIPTION: logP(acid) by reverse phase (C18) chromatography at pH 2.3
# Type: physicochemical
# ASSAY SETUP: pH 2.3
READOUT KIND: chromatographic logP

COMPOUND: Cc1cc(Cn2nc(C(F)(F)F)nc2C(F)(F)F)ncc1[N+](=O)[O-] [SYNTHESIS EXAMPLE 69-1]
EXPERIMENTAL VALUE: 3.38

COMPOUND: Cc1nc(Cn2nc(C(F)(F)C(F)(F)F)cc2C(F)(F)C(F)(F)F)ccc1N [SYNTHESIS EXAMPLE 81-2]
EXPERIMENTAL VALUE: 2.83

COMPOUND: Cc1nc(Cn2nnc(C(F)(F)F)n2)ccc1[N+](=O)[O-] [SYNTHESIS EXAMPLE 85-1]
EXPERIMENTAL VALUE: 2.85

COMPOUND: Cc1nc(Cn2cc(C(F)(F)C(F)(F)F)c(C(F)(F)C(F)(F)F)n2)ccc1N [SYNTHESIS EXAMPLE 82-2]
EXPERIMENTAL VALUE: 2.64

###

# METHOD DESCRIPTION: logP(neutral) by reverse phase chromatography, potassium dihydrogen phosphate / acetonitrile
# Format: physicochemical
# ASSAY SETUP: potassium dihydrogen phosphate / acetonitrile
# reported logP (neutral); entries follow
Response field accepts a number only; no unit should be typed.

COMPOUND: CSC[C@H](C)NC(=O)c1c(C(=O)Nc2ccc(Cn3nc(C(F)(F)F)cc3C(F)(F)F)nc2C)cccc1S(=O)(=O)N(C)C [13-287]
READOUT KIND: logP (neutral)
EXPERIMENTAL VALUE: 3.42

### Prompt Given Cc1nc(Cn2nc(C(F)(F)F)cc2C(F)(F)F)ccc1NC(=O)c1cc(Cl)cc(Cl)c1C(=O)N[C@@H](C)CS(C)(=O)=O [10-3] , state its recorded logP (neutral).
### Response 3.10

### Prompt Fill in: logP (neutral) of CSC[C@H](C)NC(=O)c1c(Br)cccc1C(=O)Nc1ccc(Cn2nc(C(F)(F)C(F)(F)C(F)(F)F)cc2C(F)(F)F)nc1C [13-128] is ___
### Response 4.42
